Emax for assorted compounds
subjectOfTest: BRAF^V600E protein (Homo sapiens, UniProt P15056, V600E)
Sequence (P15056 whole entry V600E): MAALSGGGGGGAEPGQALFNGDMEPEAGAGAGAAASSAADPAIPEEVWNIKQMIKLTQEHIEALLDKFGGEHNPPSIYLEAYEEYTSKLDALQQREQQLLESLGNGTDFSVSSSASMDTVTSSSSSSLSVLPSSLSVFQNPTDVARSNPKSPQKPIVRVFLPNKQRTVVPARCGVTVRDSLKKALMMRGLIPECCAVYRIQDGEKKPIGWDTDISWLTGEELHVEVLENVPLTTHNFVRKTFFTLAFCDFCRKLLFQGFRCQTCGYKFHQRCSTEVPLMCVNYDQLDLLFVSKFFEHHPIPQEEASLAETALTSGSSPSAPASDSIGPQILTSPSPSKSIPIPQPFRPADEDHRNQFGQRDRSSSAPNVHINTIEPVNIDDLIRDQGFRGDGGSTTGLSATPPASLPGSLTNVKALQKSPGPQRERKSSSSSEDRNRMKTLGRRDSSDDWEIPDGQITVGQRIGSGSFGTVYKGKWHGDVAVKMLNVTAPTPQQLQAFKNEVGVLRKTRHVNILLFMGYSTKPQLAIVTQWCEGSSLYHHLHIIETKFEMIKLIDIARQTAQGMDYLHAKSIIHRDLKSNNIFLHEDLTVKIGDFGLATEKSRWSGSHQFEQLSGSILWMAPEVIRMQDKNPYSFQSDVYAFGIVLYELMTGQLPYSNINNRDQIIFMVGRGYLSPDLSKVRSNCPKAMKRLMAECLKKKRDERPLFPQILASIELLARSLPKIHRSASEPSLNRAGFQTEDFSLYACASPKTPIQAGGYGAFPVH
assayOverview: HiBiT cellular BRAF V600E degradation assay
Assay type: cell-based
conditionSummary: A375.10 cells, 24 h incubation; Emax = amount of residual protein remaining in the cell after compound treatment; read-out: HiBit 24 h Emax
Field: numeric (%). Do not append units.

Query block: For CCN(C)S(=O)(=O)Nc1ccc(F)c(C(=O)c2c[nH]c3ncc(-c4ccc(N5CCN(C(=O)CCN6CCC(c7ccc(OC8CCC(=O)NC8=O)cc7)CC6)CC5)nc4)cc23)c1F (stereo not drawn) , what is its reported Emax?
Result block: 21

Query block: Another compound to check: CCN(C)S(=O)(=O)Nc1cccc(C(=O)c2c[nH]c3ncc(-c4ccc(N5CCN(C(=O)CC6(O)CCN(c7ccc(NC8CCC(=O)NC8=O)cn7)CC6)CC5)nc4)cc23)c1F (stereo not drawn)
Result block: 27.7

Query block: Another compound to check: O=C1CCC(c2ccc(C3CCN(CC(=O)N4CC5(C4)CN(c4ncc(-c6cnc7[nH]cc(C(=O)c8c(F)ccc(NS(=O)(=O)N9CCCC9)c8F)c7c6)cn4)C5)CC3)cc2)C(=O)N1 (stereo not drawn)
Result block: 11

====

subjectOfTest: BRAF^V600E protein (Homo sapiens, UniProt P15056, V600E)
assayOverview: HiBiT cellular BRAF V600E degradation assay
Assay type: cell-based
conditionSummary: A375.10 cells, 24 h incubation; Emax = amount of residual protein remaining in the cell after compound treatment; read-out: HiBit 24 h Emax
measure: Emax (%)
Field: numeric (%). Do not append units.

Record excerpt, results attached:
compound	quantityUnit	Emax
CCN(C)S(=O)(=O)Nc1cccc(C(=O)c2c[nH]c3ncc(-c4ccc(N5CCN(C(=O)CC6(O)CCN(c7ccc(NC8CCC(=O)NC8=O)cc7F)C6)CC5)nc4)cc23)c1F (stereo not shown) [Example 114]	%	10.9
CCN(C)S(=O)(=O)Nc1ccc(F)c(C(=O)c2c[nH]c3ncc(-c4cnc(N5CCN(C(=O)CC6CCN(c7ccc8c(N9CCC(=O)NC9=O)nn(C)c8c7)CC6)CC5)nc4)cc23)c1F [Example 56]	%	14.3
CCN(C)S(=O)(=O)Nc1ccc(F)c(C(=O)c2c[nH]c3ncc(-c4cnc(N5CCN(C(=O)CN6CCC(c7ccc(NC8CCC(=O)NC8=O)c(F)c7)CC6)CC5)nc4)cc23)c1F (stereo not shown) [Example 29]	%	7.67
CCN(C)S(=O)(=O)Nc1ccc(F)c(C(=O)c2c[nH]c3ncc(-c4cnc(N5CCN(C(=O)CN6CCC(N7CCN(C8CCC(=O)NC8=O)C(=O)C7)CC6)CC5)nc4)cc23)c1F (stereo not shown) [Example 37]	%	9.14
O=C1CCC(Nc2ccc(N3CCN(CC(=O)N4CCN(c5ccc(-c6cnc7[nH]cc(C(=O)c8c(F)ccc(NS(=O)(=O)N9CC[C@@H](F)C9)c8F)c7c6)cc5)CC4)CC3)cc2)C(=O)N1 (stereo partly shown) [Example A74]	%	19

Turning now to a further compound:
Query block: For CCN(C)S(=O)(=O)Nc1ccc(F)c(C(=O)c2c[nH]c3ncc(-c4ccc(N5CCN(C(=O)NC6CCN(c7ccc(NC8CCC(=O)NC8=O)cc7F)CC6)CC5)nc4)cc23)c1F (stereo not shown) [Example 140] , what is its reported Emax?
Result block: 8.77

====

subjectOfTest: BRAF^V600E protein (Homo sapiens, UniProt P15056, V600E)
assayOverview: HiBiT cellular BRAF V600E degradation assay
Assay type: cell-based
conditionSummary: A375.10 cells (HiBiT tag knocked in at N-terminal of BRAF V600E), 24 h incubation; concentration at which 50% of total cellular BRAF V600E is degraded
measure: DC50
Units required after the number.

Query block: For CCN(C)S(=O)(=O)Nc1ccc(F)c(C(=O)c2c[nH]c3ncc(-c4cnc(N5CC6(CC(C(=O)N7CCC(c8ccc(NC9CCC(=O)NC9=O)cc8)CC7)C6)C5)nc4)cc23)c1F (centres unmarked) , what is its reported DC50?
Result block: 18.2 nM

====

subjectOfTest: BRAF^V600E protein (Homo sapiens, UniProt P15056, V600E)
assayOverview: HiBiT cellular BRAF V600E degradation assay
Format: cell-based
conditionSummary: A375.10 cells, 24 h incubation; Emax = amount of residual protein remaining in the cell after compound treatment; read-out: HiBit 24 h Emax
Just a reminder that ties go to Not met: only Emax strictly below 9% counts as Met.

# example entries with known answers
molecule	subjectOfTest	classLabel
CCN(C)S(=O)(=O)Nc1cccc(C(=O)c2c[nH]c3ncc(-c4cnc(N5CCN(C(=O)CC6(O)CCN(c7ncc(NC8CCC(=O)NC8=O)cc7F)CC6)CC5)nc4)cc23)c1F (centres unmarked)	BRAF^V600E protein (Homo sapiens, UniProt P15056, V600E)	Not met
CCN(C)S(=O)(=O)Nc1ccc(F)c(C(=O)c2c[nH]c3ncc(-c4ccc(N5CCC(NC(=O)CN6CCC(c7ccc(NC8CCC(=O)NC8=O)cn7)CC6)CC5)nc4)cc23)c1F (centres unmarked)	BRAF^V600E protein (Homo sapiens, UniProt P15056, V600E)	Not met
CCN(C)S(=O)(=O)Nc1ccc(F)c(C(=O)c2c[nH]c3ncc(-c4cc(F)c(N5CCN(C(=O)CN6CCC(c7ccc(NC8CCC(=O)NC8=O)cc7)CC6)CC5)c(F)c4)cc23)c1F (centres unmarked)	BRAF^V600E protein (Homo sapiens, UniProt P15056, V600E)	Met

Moving on to the next molecule.
Query block: Regarding CCN(C)S(=O)(=O)Nc1ccc(F)c(C(=O)c2c[nH]c3ncc(-c4ccc(N5CCC(NC(=O)CN6CCC(c7ccc(NC8CCC(=O)NC8=O)cn7)CC6)CC5)cc4)cc23)c1F (centres unmarked) , kindly confirm whether its Emax is beneath 9%.
Result block: Not met

====

subjectOfTest: BRAF^V600E protein (Homo sapiens, UniProt P15056, V600E)
assayOverview: HiBiT cellular BRAF V600E degradation assay
Format: cell-based
conditionSummary: A375.10 cells (HiBiT tag knocked in at N-terminal of BRAF V600E), 24 h incubation; concentration at which 50% of total cellular BRAF V600E is degraded
Just a reminder that ties go to not fulfilled: only DC50 strictly below 4 nM counts as fulfilled.

compound	classLabel
CCN(C)S(=O)(=O)Nc1ccc(F)c(C(=O)c2c[nH]c3ncc(-c4ccc(N5CCN(C(=O)CN6CCC(c7ccc(NC8CCC(=O)NC8=O)cc7)CC6)CC5)cc4)cc23)c1F (centres unmarked) [Example A36]	fulfilled

Query block: Regarding CCCS(=O)(=O)Nc1ccc(F)c(C(=O)c2c[nH]c3ncc(-c4ccc(N5CCN(C(=O)CN6CCC(c7ccc(NC8CCC(=O)NC8=O)cc7)CC6)CC5)nc4)cc23)c1F (centres unmarked) , kindly confirm whether its DC50 is beneath 4 nM.
Result block: fulfilled

Query block: Another compound to check: CCN(C)S(=O)(=O)Nc1ccc(F)c(C(=O)c2c[nH]c3ncc(-c4ccc(N5CCN(C(=O)CC6(O)CCN(c7ccc(N[C@H]8CCC(=O)NC8=O)cc7F)CC6)CC5)cc4)cc23)c1F
Result block: not fulfilled

Query block: Another compound to check: CCN(C)S(=O)(=O)Nc1ccc(F)c(C(=O)c2c[nH]c3ncc(-c4cnc(N5CCN(C(=O)CN6CCC(c7c(F)cc(NC8CCC(=O)NC8=O)cc7F)CC6)CC5)nc4)cc23)c1F (centres unmarked)
Result block: not fulfilled

====

subjectOfTest: BRAF^V600E protein (Homo sapiens, UniProt P15056, V600E)
assayOverview: HiBiT cellular BRAF V600E degradation assay
Assay type: cell-based
conditionSummary: A375.10 cells (HiBiT tag knocked in at N-terminal of BRAF V600E), 24 h incubation; concentration at which 50% of total cellular BRAF V600E is degraded
Excerpt: DMEM no-phenol red medium supplemented with L-glutamine was purchased from (Corning). Fetal bovine serum (FBS) was purchased from Gibco (Grand Island, NY, USA). Nano-Glo® HiBiT Lytic Assay Buffer & Reagents were purchased from Promega (Madison, WI, USA). […] Prior to the assay, the A375.10 cell line is maintained in DMEM no-phenol red medium supplemented with 10% fetal bovine serum (FBS). […] Finally, HiBiT luminescence signal was acquired on EnVision™ Multilabel Reader (PerkinElmer, Santa Clara, CA, USA). […]
Just a reminder that ties go to no (0): only DC50 strictly below 10 nM counts as yes (1).

compound	classLabel
O=C1CCC(Oc2ccc(C3CCN(CC(=O)N4CC5(C4)CN(c4ccc(-c6cnc7[nH]cc(C(=O)c8c(F)ccc(NS(=O)(=O)N9CCCC9)c8F)c7c6)cc4)C5)CC3)cc2)C(=O)N1 (stereo not shown)	no (0)
CCN(C)S(=O)(=O)Nc1ccc(F)c(C(=O)c2c[nH]c3ncc(-c4ccc(CN5CCN(C(=O)CN6CCN(c7cccc(NC8CCC(=O)NC8=O)c7)CC6)CC5)cc4)cc23)c1F (stereo not shown)	no (0)
CCN(C)S(=O)(=O)Nc1cccc(C(=O)c2c[nH]c3ncc(-c4ccc(N5CCN(C(=O)CC6(O)CCN(c7ccc(NC8CCC(=O)NC8=O)cc7F)C6)CC5)cc4)cc23)c1F (stereo not shown)	no (0)

Query block: Regarding CCN(C)S(=O)(=O)Nc1ccc(F)c(C(=O)c2c[nH]c3ncc(-c4ccc(OC5CCN(C(=O)CN6CCC(c7ccc(OC8CCC(=O)NC8=O)cc7)CC6)CC5)cc4)cc23)c1F (stereo not shown) , kindly confirm whether its DC50 is beneath 10 nM.
Result block: no (0)

Query block: Another compound to check: CCN(C)S(=O)(=O)Nc1cccc(C(=O)c2c[nH]c3ncc(-c4ccc(N5CCN(C(=O)CC6(O)CCN(c7ccc(N8CCC(=O)NC8=O)cc7F)CC6)CC5)nc4)cc23)c1F
Result block: yes (1)

Query block: Another compound to check: CCN(C)S(=O)(=O)Nc1ccc(F)c(C(=O)c2c[nH]c3ncc(-c4cnc(N5CCN(C(=O)CC6(O)CCN(c7ccc(N[C@H]8CCC(=O)NC8=O)cc7F)CC6)CC5)nc4)cc23)c1F (single isomer, unassigned)
Result block: yes (1)

Query block: Another compound to check: CCN(C)S(=O)(=O)Nc1ccc(F)c(C(=O)c2c[nH]c3ncc(-c4cnc(N5CCN(C(=O)CN6CCC(c7ccc(NC8CCC(=O)NC8=O)cc7)CC6)CC5)c(C#N)c4)cc23)c1F (stereo not shown)
Result block: yes (1)

Query block: Another compound to check: CCN(C)S(=O)(=O)Nc1ccc(F)c(C(=O)c2c[nH]c3ncc(-c4cnc(N5CCN(C(=O)CC6(O)CCN(c7ccc(N[C@@H]8CCC(=O)NC8=O)cc7Cl)CC6)CC5)nc4)cc23)c1F
Result block: yes (1)

Query block: Another compound to check: CC(C)S(=O)(=O)Nc1ccc(F)c(C(=O)c2c[nH]c3ncc(-c4ccc(N5CCN(C(=O)CN6CCC(c7ccc(C8CCC(=O)NC8=O)cc7F)CC6)CC5)nc4)cc23)c1F (stereo not shown)
Result block: yes (1)
